system: OVCAR-3 ovarian; test: NCI-60 one-dose screen, 48 h; conditions: 10 µM unless noted
About 83,000 compounds went through this panel and 20% of them were active in at least one assay; those are over-represented in the sample as a whole. Active and inactive are the calls of the source. How the source made its calls: active means growth percent below 10; inactive means the rest.
Pick from t = active, f = inactive when you respond.

molecule=COc1ccc(Cl)cc1Nc1nc(C(F)(F)F)ccc1C(=O)N/N=C/c1ccc([N+](=O)[O-])cc1 category=t

Inquiry: // outcome(item) with item = COc1ccc(-c2cc(C(=O)N3N=C(c4ccc(N)cc4)CC3c3ccc(Cl)cc3)c3ccccc3n2)cc1 (centres undefined)
Reply text: t

Inquiry: // outcome(item) with item = O=C1NC(=O)C(c2coc3cc(Br)ccc23)=C1c1c[nH]c2ccccc12
Reply text: f

Inquiry: // outcome(item) with item = O=C(/C=C/c1cccc(Oc2ccccc2)c1)c1ccc(Nc2nc(Nc3ccc(F)cc3)nc(Nc3ccc(Cl)cc3)n2)cc1
Reply text: f

Inquiry: // outcome(item) with item = C=C1CC[C@@H]2C(C)(C)[C@H](O)CC[C@@]2(C)[C@@H]1COc1ccc2ccc(=O)oc2c1
Reply text: f

Inquiry: // outcome(item) with item = COC(=O)c1c2c(c[n+]([O-])c1C)C(=O)C=C(NCc1ccccc1)C2=O
Reply text: t

Inquiry: // outcome(item) with item = Cc1oc(-c2ccc(Cl)cc2)nc1C1=NN(C(=O)c2ccncc2)C(c2ccccc2)C1 (centres undefined)
Reply text: f

Inquiry: // outcome(item) with item = C=C(C)[C@@H]1CC[C@]2(C)[C@H](C=CC3=C4C[C@@](C)(CO)CC[C@]4(C)CC[C@]32C)[C@@]1(C)CCCN
Reply text: t

Inquiry: // outcome(item) with item = COc1ccc(N=C2NN=C(c3c[nH]c4ccccc34)CS2)cc1OC
Reply text: t

Inquiry: // outcome(item) with item = O=[N+]([O-])c1ccccc1Sc1ccccc1[N+](=O)[O-]
Reply text: f

Inquiry: // outcome(item) with item = O=C(/C=C/c1cn(-c2ccccc2)nc1-c1ccccc1)CCC(=O)NO
Reply text: f

Inquiry: // outcome(item) with item = Cc1nc2sc(C(=O)Nc3cccc4ccccc34)c(N)c2cc1C(=O)c1ccccc1
Reply text: t

Inquiry: // outcome(item) with item = CC1=Nc2cnc(Nc3ccc(N4CCCCC4)cc3)nc2Nc2ccccc21
Reply text: f

Inquiry: // outcome(item) with item = CCCc1cc(=O)oc2c(C(=O)CC(C)C)c(O)c(CC=C(C)C)c(O)c12
Reply text: f

---

tested on: SK-OV-3 ovarian; assay: NCI-60 one-dose screen, 48 h (100 = growth as untreated, 0 = no growth, -100 = all killed); details: 10 µM unless noted
The panel holds about 83,000 compounds, 20% with a hit somewhere; the sample as a whole holds those more often.
Quick reference: growth of the listed items.
Numbers only; they are read as %.

What the record says about Cc1cccc(NC(=O)N/C(N)=N/c2nc3ccccc3s2)c1 : growth is 35.2

What the record says about O=C(/C=C/c1cccc(Oc2ccccc2)c1)c1ccc(Nc2nc(Nc3ccc(F)cc3)nc(Nc3ccc(Cl)cc3)n2)cc1 : growth is 120

What the record says about COc1cccc(CNc2c3ccccc3nc3ccccc23)c1OC : growth is 66

What the record says about O=[N+]([O-])c1ccccc1Sc1ccccc1[N+](=O)[O-] : growth is 90.9

What the record says about COCCn1cc(-c2nc(-c3cc4cccnc4n3C)cs2)c2ccccc21 : growth is 58.7
